# ASSAYED_SYSTEM: COX-1 (Ovis aries)
# Construct: purchased Cayman Chemical Ltd 760111
# Sequence (P05979 25-600): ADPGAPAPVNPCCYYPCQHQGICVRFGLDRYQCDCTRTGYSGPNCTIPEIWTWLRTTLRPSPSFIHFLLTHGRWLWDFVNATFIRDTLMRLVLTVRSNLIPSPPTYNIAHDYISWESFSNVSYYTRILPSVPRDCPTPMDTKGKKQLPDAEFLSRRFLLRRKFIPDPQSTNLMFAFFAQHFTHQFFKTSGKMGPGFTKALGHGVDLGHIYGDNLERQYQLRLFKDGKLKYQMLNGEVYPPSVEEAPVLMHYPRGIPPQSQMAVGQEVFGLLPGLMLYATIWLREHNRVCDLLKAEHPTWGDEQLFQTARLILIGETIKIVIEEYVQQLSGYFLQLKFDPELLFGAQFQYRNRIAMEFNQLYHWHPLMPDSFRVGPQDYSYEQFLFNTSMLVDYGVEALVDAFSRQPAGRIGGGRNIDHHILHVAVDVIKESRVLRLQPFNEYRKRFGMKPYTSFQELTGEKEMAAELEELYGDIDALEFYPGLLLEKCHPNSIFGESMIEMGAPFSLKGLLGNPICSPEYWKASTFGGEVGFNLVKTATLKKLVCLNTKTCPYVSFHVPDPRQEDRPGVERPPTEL
# TEST_DETAILS: Colorimetric COX inhibitor screening assay (competitive inhibition of substrate transfer, CIST), COX-1
# Format: biochemical, ovine
QUANTITY_MEASURED: IC50 (µM)

- Oc1ccc(C=Cc2cc(O)cc(O)c2)cc1: 3.9

###

Listed here: molecules with reported IC50 for COX-2 (Ovis aries).
QUANTITY_MEASURED: IC50

* O=C(O)CCC(=O)c1ccc(-c2ccccc2)cc1 [fenbufen] | > 10 µM
* O=c1ccn([C@@H]2O[C@H](CO)[C@@H](O)[C@H]2O)c(=O)[nH]1 [uridine] | > 10 µM

Where these numbers come from: patent US8986652B2
